- experimental-details: Plasma drug concentration after topical dosing in the dermatitis model (LC-MS/MS)
- Format: in vivo
- recorded-conditions: mouse, in vivo; delivered topically to the skin; 2 hours post final dose; read-out: plasma concentrations
test-readout: concentration at 2 h

Inquiry: # concentration at 2 h lookup, item CS(=O)(=O)Nc1ccc(C(=O)O[C@@H](Cc2c(Cl)c[n+]([O-])cc2Cl)c2ccc(OC(F)F)c(OCC3CC3)c2)cc1OCC1CC1 [Compound A]
Reply text: < 5 ng/mL
